- assay_details: log p
- Format: physicochemical
property_measured: log p

>  <compound>
CC(Nc1c(-c2ccccc2F)c(Cl)nc2ncnn12)C(F)(F)F (stereo not drawn)

>  <log p>
2.69

$$$$
>  <compound>
C[C@H](Nc1c(-c2c(Cl)cccc2Cl)c(Cl)nc2ncnn12)C(F)(F)F

>  <log p>
3.02

$$$$
>  <compound>
C=C(C)CN(CC)c1c(-c2ccccc2)c(Cl)nc2ncnn12

>  <log p>
3.44

$$$$
>  <compound>
Fc1ccc(-c2c(Cl)nc3ncnn3c2N2CCSCC2)c(F)c1

>  <log p>
2.8

$$$$
>  <compound>
CCCNc1c(-c2ccccc2F)c(Cl)nc2ncnn12

>  <log p>
2.43

$$$$
>  <compound>
Fc1c(F)c(F)c(-c2c(Cl)nc3ncnn3c2N2CCSCC2)c(F)c1F

>  <log p>
3.29

$$$$
>  <compound>
C=C(C)CN(CC)c1c(-c2cc(C(F)(F)F)ccc2Cl)c(Cl)nc2ncnn12

>  <log p>
4.12

$$$$
>  <compound>
CC(Nc1c(-c2c(F)cc(F)cc2F)c(Br)nc2ncnn12)C(F)(F)F (stereo not drawn)

>  <log p>
2.9

$$$$
>  <compound>
CSc1cc(F)cc(F)c1-c1c(Cl)nc2ncnn2c1N[C@@H](C)C(F)(F)F

>  <log p>
3.17

$$$$

###

- assay_details: log p
- Type: physicochemical
property_measured: log p

>  <compound>
CC1C=CCN(c2c(-c3c(F)cc(F)cc3F)c(Cl)nc3ncnn23)O1 (centres unmarked)

>  <log p>
3.12

$$$$
>  <compound>
CCC(C)Nc1c(-c2ccccc2Cl)c(Cl)nc2ncnn12 (centres unmarked)

>  <log p>
2.94

$$$$
>  <compound>
Fc1ccccc1-c1c(Cl)nc2ncnn2c1N1CCCC1

>  <log p>
2.49

$$$$
>  <compound>
CC1CCN(c2c(-c3c(F)cccc3Cl)c(Cl)nc3ncnn23)NC1 (centres unmarked)

>  <log p>
3.01

$$$$
>  <compound>
Clc1ccccc1-c1c(Cl)nc2ncnn2c1N1CCCCC1

>  <log p>
3.26

$$$$

###

- assay_details: log p
- Format: physicochemical
property_measured: log p

>  <molecule>
CC(C)CNc1c(-c2ccccc2Cl)c(Cl)nc2ncnn12 [Example 126]

>  <log p>
2.97

$$$$
>  <molecule>
Cc1nc2ncnn2c(N[C@H](C)C(C)C)c1-c1c(F)cccc1Cl [Example 79]

>  <log p>
2.7

$$$$
>  <molecule>
CC1C=NN(c2c(-c3c(F)cc(F)cc3F)c(Cl)nc3ncnn23)CC1 (stereo not shown) [Example 273]

>  <log p>
2.85

$$$$
>  <molecule>
Fc1ccc(-c2c(Cl)nc3ncnn3c2N2CCCC2C(F)(F)F)c(F)c1 (stereo not shown) [Example 210]

>  <log p>
3.2

$$$$

###

- assay_details: log p
- Format: physicochemical
property_measured: log p

>  <molecule>
CC1CCN(c2c(-c3ccccc3Cl)c(Cl)nc3ncnn23)NC1 (centres unmarked)

>  <log p>
3

$$$$
>  <molecule>
CC(C)Nc1c(-c2c(F)c(F)c(F)c(F)c2F)c(Cl)nc2ncnn12

>  <log p>
3.05

$$$$
>  <molecule>
CCN(CC)c1c(-c2ccccc2F)c(Cl)nc2ncnn12

>  <log p>
2.82

$$$$
>  <molecule>
C=CCN(CC)c1c(-c2ccc(F)cc2F)c(Cl)nc2ncnn12

>  <log p>
3.19

$$$$

(A) CCN(CC)c1c(-c2c(F)cc(F)cc2F)c(Cl)nc2ncnn12
(B) CC1CCCN(c2c(-c3c(F)cc(C(F)(F)F)cc3Cl)c(Cl)nc3ncnn23)C1 (centres unmarked)
Prompt: // select label with min value of measured log p from [ A , B ] Lab note: record the label of whichever item you select.
Completion: A
(A: 3.05, B: 4.46)

###

- assay_details: log p
- Type: physicochemical
property_measured: log p

>  <molecule>
C[C@H](Nc1c(-c2cccc(C(F)(F)F)c2Cl)c(Cl)nc2ncnn12)C(F)(F)F

>  <log p>
3.36

$$$$
>  <molecule>
CC1CCN(c2c(-c3c(F)cccc3Cl)c(Cl)nc3ncnn23)CC1

>  <log p>
3.68

$$$$
>  <molecule>
Fc1c(F)c(F)c(-c2c(Cl)nc3ncnn3c2N2CCCCC2)c(F)c1F

>  <log p>
3.61

$$$$
>  <molecule>
CCNc1c(-c2c(F)cccc2F)c(Cl)nc2ncnn12

>  <log p>
2.14

$$$$
>  <molecule>
C[C@@H](Nc1c(-c2c(F)cccc2Cl)c(Cl)nc2ncnn12)C(C)(C)C

>  <log p>
3.58

$$$$
>  <molecule>
CC1CNN(c2c(-c3c(F)cccc3Cl)c(Cl)nc3ncnn23)CC1C (centres unmarked)

>  <log p>
3.32

$$$$
>  <molecule>
Cc1cc(C)n(-c2c(-c3ccc(F)cc3Cl)c(Cl)nc3ncnn23)n1

>  <log p>
2.94

$$$$
>  <molecule>
CC(C)Nc1c(-c2ccc(F)cc2Cl)c(Cl)nc2ncnn12

>  <log p>
2.79

$$$$
>  <molecule>
Fc1ccc(-c2c(Cl)nc3ncnn3c2N2CCCCC2)c(F)c1

>  <log p>
3.14

$$$$
>  <molecule>
CC(Nc1c(-c2ccccc2Cl)c(Cl)nc2ncnn12)C(F)(F)F (centres unmarked)

>  <log p>
2.88

$$$$
>  <molecule>
Fc1cc(C(F)(F)F)cc(Cl)c1-c1c(Cl)nc2ncnn2c1N1CCCCC1

>  <log p>
4.03

$$$$
>  <molecule>
CC(C)(C)Nc1c(-c2c(F)cc(F)cc2F)c(Cl)nc2ncnn12

>  <log p>
3.05

$$$$
>  <molecule>
Fc1cccc(Cl)c1-c1c(Cl)nc2ncnn2c1N1CCCC=N1

>  <log p>
2.58

$$$$
>  <molecule>
Fc1ccccc1-c1c(Cl)nc2ncnn2c1N1CCCCC1

>  <log p>
3.01

$$$$
>  <molecule>
Fc1cc(F)c(-c2c(Cl)nc3ncnn3c2N2CCCN2)c(F)c1

>  <log p>
2.32

$$$$
>  <molecule>
CC1CCCN(c2c(-c3ccc(F)cc3F)c(Cl)nc3ncnn23)C1 (centres unmarked)

>  <log p>
3.52

$$$$
>  <molecule>
C[C@H](Nc1c(-c2cc(SC(F)(F)F)ccc2Cl)c(Cl)nc2ncnn12)C(F)(F)F

>  <log p>
3.78

$$$$
>  <molecule>
CCC(C)Nc1c(-c2ccccc2F)c(Cl)nc2ncnn12 (centres unmarked)

>  <log p>
2.73

$$$$
>  <molecule>
Fc1cc(F)c(-c2c(Cl)nc3ncnn3c2N2CCCCC2)c(F)c1

>  <log p>
3.53

$$$$
>  <molecule>
C=CCN(CC)c1c(-c2c(F)cc(C(F)(F)F)cc2Cl)c(Cl)nc2ncnn12

>  <log p>
4.06

$$$$
>  <molecule>
C[C@H](Nc1c(-c2ccc(F)cc2C(F)(F)F)c(Cl)nc2ncnn12)C(F)(F)F

>  <log p>
3.07

$$$$
>  <molecule>
CC(C)Nc1c(-c2ccccc2F)c(Cl)nc2ncnn12

>  <log p>
2.42

$$$$
>  <molecule>
CC(Nc1c(-c2c(F)cc(F)cc2F)c(Cl)nc2ncnn12)C(F)(F)F (centres unmarked) [Example 1]

>  <log p>
2.87

$$$$

###

- assay_details: log p
- Assay type: physicochemical
property_measured: log p

Consider the reported log p for these compounds:
>  <compound>
C=C(C)CN(CC)c1c(-c2ccc(F)cc2F)c(Cl)nc2ncnn12 [Example 93]

>  <recorded_number>
3.54

$$$$
>  <compound>
CCNc1c(-c2ccccc2F)c(Cl)nc2ncnn12 [Example 23]

>  <recorded_number>
2.13

$$$$
>  <compound>
CC1CCCCN1c1c(-c2ccccc2Cl)c(Cl)nc2ncnn12 (stereo not drawn) [Example 248]

>  <recorded_number>
3.6

$$$$
>  <compound>
Fc1cc(C(F)(F)F)cc(Cl)c1-c1c(Cl)nc2ncnn2c1N1CC=CCC1 [Example 179]

>  <recorded_number>
3.85

$$$$
>  <compound>
Clc1ccc(-c2c(Cl)nc3ncnn3c2N2CCOCC2)c(Cl)c1 [Example 254]

>  <recorded_number>
2.78

$$$$

(I) CC1CC(C)CN(c2c(-c3ccc(F)cc3F)c(Cl)nc3ncnn23)C1 (stereo not drawn) [Example 187]
(II) Fc1ccc(-c2c(Cl)nc3ncnn3c2N2CCCN2)c(Cl)c1 [Example 261]
Prompt: Decide: I or II , by lowest recorded log p. State your choice using its label.
Completion: II

###

- assay_details: log p
- Assay type: physicochemical
property_measured: log p

Consider the worked cases shown below.
>  <compound>
CN(C)c1c(-c2c(F)c(F)c(F)c(F)c2F)c(Cl)nc2ncnn12

>  <log p>
2.74

$$$$
>  <compound>
Clc1ccc(-c2c(Cl)nc3ncnn3c2N2CCCCO2)c(Cl)c1

>  <log p>
3.51

$$$$
>  <compound>
CC(Nc1c(-c2c(F)c(F)c(F)c(F)c2F)c(Cl)nc2ncnn12)C(F)(F)F (centres unmarked)

>  <log p>
3.3

$$$$

(P) CC(C)(C)CC(C)(C)Nc1c(-c2c(F)cc(F)cc2F)c(Cl)nc2ncnn12
(Q) Clc1ccccc1-c1c(Cl)nc2ncnn2c1N1CCCC1
Prompt: Higher log p between P and Q ? Lab log: write the label of the selected item as the result.
Completion: P

(I) CC(Nc1c(-c2c(F)cccc2Cl)c(Cl)nc2ncnn12)C(C)(C)C (centres unmarked)
(II) Fc1cc(F)c(-c2c(Cl)nc3ncnn3c2N2CCCO2)c(F)c1
Prompt: From the recorded data, which exceeds the other in log p: I or II ? Mark your selection by writing its label.
Completion: I
